assay: Antiinflammatory activity in human neutrophils assessed as inhibition of fMLP/CB-induced elastase release using MeO-Suc-Ala-Ala-Pro-Val-MC as substrate at 10 ug/mL by spectrophotometry; assay type: functional; settings: Neutrophil
Collected inhibition at 10 µg/mL values appear next to each entry.
Measured Metric: inhibition at 10 µg/mL

{"Compound": "O=c1c2ccc(O)cc2oc2cc(O)cc(O)c12", "Data Value": "16%"}
{"Compound": "CC1(C)Oc2cc(O)c3c(=O)c4ccc(O)cc4oc3c2C(O)C1O (configuration not stated)", "Data Value": "6.37%"}
{"Compound": "CC1(C)Oc2cc3oc4cc(O)ccc4c(=O)c3c(O)c2C(O)C1O (configuration not stated)", "Data Value": "35.3%"}
{"Compound": "COc1ccc2c(=O)c3c(O)cc(O)cc3oc2c1", "Data Value": "23.6%"}
{"Compound": "CC(C)=CCOc1ccc2c(=O)c3c(O)c(CC=C(C)C)c(OCC=C(C)C)cc3oc2c1", "Data Value": "7.56%"}
{"Compound": "CC(C)=CCOc1cc(O)c2c(=O)c3ccc(O)cc3oc2c1", "Data Value": "4.21%"}
{"Compound": "COc1ccc2c(=O)c3c(O)cc(OC)cc3oc2c1", "Data Value": "26.5%"}
{"Compound": "CC(C)=CCOc1ccc2c(=O)c3c(O)cc(OCC=C(C)C)cc3oc2c1", "Data Value": "13.3%"}
{"Compound": "CC(C)=CCc1c(O)cc2oc3cc(O)ccc3c(=O)c2c1O", "Data Value": "56.3%"}
{"Compound": "CC(C)=CCOc1ccc2c(=O)c3c(OCC=C(C)C)cc(OCC=C(C)C)cc3oc2c1", "Data Value": "54.9%"}
{"Compound": "CC(C)=CCc1c(O)cc2oc3c(CC=C(C)C)c(O)ccc3c(=O)c2c1O", "Data Value": "67.2%"}
{"Compound": "CC1(C)C=Cc2c(cc(O)c3c(=O)c4ccc(O)cc4oc23)O1", "Data Value": "18.4%"}
